Data origin: ChEMBL document CHEMBL1153427

# Target Of Assay: Cannabinoid receptor 1 (Homo sapiens)
# Assay Overview: Inverse agonist activity at human recombinant CB1R expressed in CHO cells assessed as increase in forskolin-stimulated cAMP level
# Assay type: functional, cell-based
Recorded Endpoint: EC50 (nM)

// solved cases for EC50 follow
Compound	EC50 [nM]
O=C(C1CCCCC1)N1CCN(S(=O)(=O)c2cccc3ccccc23)CC1c1ccccc1 (configuration not stated)	600
O=C(C1CCCCC1)N1C2CCC1CN(S(=O)(=O)c1cccc3ccccc13)C2	300
CC(C(=O)N1CCN(S(=O)(=O)c2cc(Cl)cc(Cl)c2)CC1)c1ccccc1 (racemic)	0.3
O=C(Cc1ccc(C(F)(F)F)cc1)N1CCN(S(=O)(=O)c2cc(C3CC3)cc(C(F)(F)F)c2)CC1	1
O=C(C1CC1)N1CCN(S(=O)(=O)c2cc(Cl)ccc2Cl)CC1	90

I. O=C(C1CC1)N1CCN(S(=O)(=O)c2c(Cl)cccc2Cl)CC1
II. O=C(Cc1ccc(C(F)(F)F)cc1)N1CCN(S(=O)(=O)c2cc(Cl)cc(Cl)c2)CC1
Problem: Compare the recorded EC50 of I and II ; state which is larger. Output the label that corresponds to your choice.
Result: I

P. COC(=O)c1cc(C(F)(F)F)cc(S(=O)(=O)N2CCN(C(=O)Cc3ccc(C(F)(F)F)cc3)CC2)c1
Q. CC(C(=O)N1CCN(S(=O)(=O)c2cc(Cl)cc(Cl)c2)CC1)c1ccc(C(F)(F)F)cc1 (stereo in doubt; 20b)
Problem: Compare EC50: is it lower for P or for Q ? Please identify the chosen entry by its label.
Result: P

a. O=C(C1CCCCC1)N1CCN(S(=O)(=O)c2cc(Cl)cc(Cl)c2)CC1
b. O=C(C1CCCCC1)N1CCN(S(=O)(=O)c2cc(C(F)(F)F)cc(C(F)(F)F)c2)CC1
Problem: Among a and b , which shows a numerically higher EC50 result? Your answer should be the label of the entry you select.
Result: b

1. O=C(Cc1ccccc1)N1CCN(S(=O)(=O)c2cc(Cl)cc(Cl)c2)CC1
2. O=C(C1CC1)N1CCN(S(=O)(=O)c2c(Cl)cc(Cl)cc2Cl)CC1
Problem: Please indicate which has the smaller reported EC50: 1 , or 2 . Select an item and report its label.
Result: 1
(1: 2 nM, 2: 1500 nM)

====

# Target Of Assay: UniProt:P21554
# Assay Overview: Inverse agonist activity at human recombinant CB1R expressed in CHO cells assessed as increase in forskolin-stimulated cAMP level
# Assay type: functional, cell-based
pEC50: −log10 of the molar value.
Recorded Endpoint: pEC50

a. CC(C)(C(=O)N1CCN(S(=O)(=O)c2cc(Cl)cc(Cl)c2)CC1)c1ccccc1
b. O=C(C1CCCCC1)N1CCN(S(=O)(=O)c2cccc(-c3ccccc3)c2)CC1
Problem: Hi, I'm comparing a with b and wondering which one has the bigger number for pEC50. Any idea? Output the label that corresponds to your choice.
Result: a

P. O=C(C1CCCCC1)N1CCN(S(=O)(=O)c2cccc3ccccc23)CC1
Q. C[C@@H]1CN(S(=O)(=O)c2cccc3ccccc23)C[C@H](C)N1C(=O)C1CCCCC1
R. O=C(Cc1ccccn1)N1CCN(S(=O)(=O)c2cc(Cl)cc(Cl)c2)CC1
Problem: Put these in order: smallest pEC50 first, largest last. In your reply, arrange the labels in the requested order.
Result: R, Q, P
(R: 7.40, Q: 8.10, P: 9.22)

====

# Target Of Assay: Cannabinoid receptor 1 (Rattus norvegicus, UniProt P20272)
# Sequence (P20272 whole entry): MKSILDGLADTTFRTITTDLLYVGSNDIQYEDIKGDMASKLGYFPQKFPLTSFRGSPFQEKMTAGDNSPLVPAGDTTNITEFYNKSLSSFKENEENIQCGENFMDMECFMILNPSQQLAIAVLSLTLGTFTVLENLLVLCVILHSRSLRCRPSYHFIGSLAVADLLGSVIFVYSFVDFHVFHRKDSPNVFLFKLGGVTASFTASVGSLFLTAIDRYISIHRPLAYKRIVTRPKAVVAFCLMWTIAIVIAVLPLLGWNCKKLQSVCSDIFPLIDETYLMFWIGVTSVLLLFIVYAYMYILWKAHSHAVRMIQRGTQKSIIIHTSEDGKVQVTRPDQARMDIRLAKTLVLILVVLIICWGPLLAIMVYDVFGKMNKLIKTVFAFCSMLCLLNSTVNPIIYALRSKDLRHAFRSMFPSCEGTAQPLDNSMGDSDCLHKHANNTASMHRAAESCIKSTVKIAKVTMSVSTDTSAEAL
# Assay Overview: Displacement of [3H] SR-141716 from rat recombinant CB1R expressed in CHO cells
# Assay type: cell-based
Recorded Endpoint: IC50 (nM)
Give the value in nM but do not write nM after it.

O=C(Cc1ccc(C(F)(F)F)cc1)N1CCN(S(=O)(=O)c2cc(C3CC3)cc(C(F)(F)F)c2)CC1 11
O=C([C@@H]1C[C@H]1c1ccc(C(F)(F)F)cc1)N1CCN(S(=O)(=O)c2cc(C3CC3)cc(C(F)(F)F)c2)CC1 0.2

Attention now turns to another entry.
Problem: So what does the record say about IC50 for O=C(c1ccc(C(F)(F)F)cc1)N1CCN(S(=O)(=O)c2cc(C3CC3)cc(C(F)(F)F)c2)CC1 ?
Result: 227

====

# Assay Overview: Bioavailability in dog
# Assay type: ADME, organism-based, Canis lupus familiaris
# Experimental Context: in vivo
Recorded Endpoint: bioavailability (%)
// units = %; emit number, no label

Problem: What does the data say about its bioavailability? Entry: O=C([C@@H]1C[C@H]1c1ccc(C(F)(F)F)cc1)N1CCN(S(=O)(=O)c2cc(-c3nnc[nH]3)cc(C(F)(F)F)c2)CC1
Result: 26

====

bioavailability overview
# Assay Overview: Bioavailability in Sprague-Dawley rat at 1 mg/kg, iv and 2 mg/kg, po
# Format: ADME, organism-based
# Experimental Context: in vivo
Answer format: numeric, % implied, no suffix.

O=C([C@@H]1C[C@H]1c1ccc(C(F)(F)F)cc1)N1CCN(S(=O)(=O)c2cc(C3CC3)cc(C(F)(F)F)c2)CC1 74
O=C(c1ccc(C(F)(F)F)cc1)N1CCN(S(=O)(=O)c2cc(C3CC3)cc(C(F)(F)F)c2)CC1 47

Problem: May I ask what bioavailability has been recorded for O=C([C@@H]1C[C@H]1c1ccc(C(F)(F)F)cc1)N1CCN(S(=O)(=O)c2cc(-c3nnc[nH]3)cc(C(F)(F)F)c2)CC1 ?
Result: 31

====

Items are presented alongside their recorded half-life.
# Assay Overview: Half life in Sprague-Dawley rat at 1 mg/kg, iv and 2 mg/kg, po
# Assay type: ADME, organism-based
# Experimental Context: in vivo
Your answer should be a plain number; it is taken to be in min.

Consider the worked cases shown below.
O=C([C@@H]1C[C@H]1c1ccc(C(F)(F)F)cc1)N1CCN(S(=O)(=O)c2cc(C3CC3)cc(C(F)(F)F)c2)CC1 1320
O=C(c1ccc(C(F)(F)F)cc1)N1CCN(S(=O)(=O)c2cc(C3CC3)cc(C(F)(F)F)c2)CC1 1140

Moving on to the next molecule.
Problem: Could you tell me which half-life is on file for O=C([C@@H]1C[C@H]1c1ccc(C(F)(F)F)cc1)N1CCN(S(=O)(=O)c2cc(-c3nnc[nH]3)cc(C(F)(F)F)c2)CC1 ?
Result: 228

====

# Target Of Assay: UniProt P34972
# Sequence (P34972 whole entry): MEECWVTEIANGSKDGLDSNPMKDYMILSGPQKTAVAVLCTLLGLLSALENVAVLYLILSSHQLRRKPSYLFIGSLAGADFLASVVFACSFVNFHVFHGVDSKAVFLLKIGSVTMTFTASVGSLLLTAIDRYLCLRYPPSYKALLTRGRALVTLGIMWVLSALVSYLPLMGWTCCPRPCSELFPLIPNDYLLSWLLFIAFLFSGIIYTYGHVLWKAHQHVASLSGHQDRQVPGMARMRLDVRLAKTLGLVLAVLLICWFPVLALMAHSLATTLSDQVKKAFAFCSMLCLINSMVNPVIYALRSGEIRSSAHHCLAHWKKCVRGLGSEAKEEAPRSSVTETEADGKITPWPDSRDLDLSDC
# Assay Overview: Displacement of [3H]CP-55940 from human recombinant CB2R expressed in CHO cells
pIC50: −log10 of the molar value.
Some molecules, each annotated with its measured pIC50.

Use the examples below as a reference point.
Cc1cc(C)cc(S(=O)(=O)N2CCN(C(=O)C3CCCCC3)CC2)c1 < 5.00
O=C(C1CCCCC1)N1CCN(S(=O)(=O)c2cc(Cl)cc(Cl)c2)CC1 < 5.00
O=C(C1CCCCC1)N1CCN(S(=O)(=O)c2cc(C(F)(F)F)cc(C(F)(F)F)c2)CC1 < 5.00

Problem: Query (molecule): O=C(Cc1ccc(C(F)(F)F)cc1)N1CCN(S(=O)(=O)c2cc(Br)cc(C(F)(F)F)c2)CC1 ; field requested: pIC50
Result: < 5.00

Problem: Please report the recorded pIC50 for COC(=O)c1cc(C(F)(F)F)cc(S(=O)(=O)N2CCN(C(=O)Cc3ccc(C(F)(F)F)cc3)CC2)c1 .
Result: < 5.00

Problem: Sample Nc1nnc(-c2cc(C(F)(F)F)cc(S(=O)(=O)N3CCN(C(=O)[C@@H]4C[C@H]4c4ccc(C(F)(F)F)cc4)CC3)c2)o1 — what was its pIC50?
Result: < 5.00

====

# Assay Overview: Cmax in rhesus monkey
# Format: ADME, organism-based, Macaca mulatta
# Experimental Context: in vivo
Recorded Endpoint: Cmax (nM)
The figure you give is taken to be in nM; do not add the unit.

Problem: Query (compound): O=C([C@@H]1C[C@H]1c1ccc(C(F)(F)F)cc1)N1CCN(S(=O)(=O)c2cc(-c3nnc[nH]3)cc(C(F)(F)F)c2)CC1 ; field requested: Cmax
Result: 3

====

# Target Of Assay: Cannabinoid receptor 1 (Homo sapiens, UniProt P21554)
# Sequence (P21554 whole entry): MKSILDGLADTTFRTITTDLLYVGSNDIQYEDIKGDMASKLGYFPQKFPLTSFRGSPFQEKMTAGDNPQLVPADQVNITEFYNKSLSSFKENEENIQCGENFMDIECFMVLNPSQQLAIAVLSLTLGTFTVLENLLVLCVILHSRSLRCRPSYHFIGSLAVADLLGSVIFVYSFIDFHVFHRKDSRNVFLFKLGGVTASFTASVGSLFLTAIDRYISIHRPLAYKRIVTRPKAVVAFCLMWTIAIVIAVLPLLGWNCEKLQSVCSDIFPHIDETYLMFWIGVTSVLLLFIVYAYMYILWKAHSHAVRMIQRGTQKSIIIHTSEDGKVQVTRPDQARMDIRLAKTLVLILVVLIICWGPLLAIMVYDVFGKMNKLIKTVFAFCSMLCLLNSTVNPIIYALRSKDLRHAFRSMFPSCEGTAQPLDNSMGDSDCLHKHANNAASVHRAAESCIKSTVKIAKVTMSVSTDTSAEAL
# Assay Overview: Displacement of [3H]CP-55940 from human recombinant CB1R expressed in CHO cells
# Format: cell-based
pIC50: −log10 of the molar value.
Recorded Endpoint: pIC50

O=C(C1CCCCC1)N1C2CCC1CN(S(=O)(=O)c1cccc3ccccc13)C2 5.51
O=C(Cc1ccccn1)N1CCN(S(=O)(=O)c2cc(Cl)cc(Cl)c2)CC1 5.52
O=C([C@@H]1C[C@H]1c1ccc(C(F)(F)F)cc1)N1CCN(S(=O)(=O)c2cc(-c3c[nH]nn3)cc(C(F)(F)F)c2)CC1 8.52

P. O=C(C1CC1)N1CCN(S(=O)(=O)c2c(Cl)cccc2Cl)CC1
Q. O=C(C1CC1)N1CCN(S(=O)(=O)c2ccc(Cl)cc2)CC1
Problem: When their pIC50 values are compared, which is larger, P or Q ? // output: label of the selected item
Result: Q
(Q: 5.46, P: 5.01)

a. O=C(C1CCCCC1)N1CCN(S(=O)(=O)c2cccc(C(F)(F)F)c2)CC1
b. O=C(C1CCCCC1)N1CCN(S(=O)(=O)c2cccc3ccccc23)CC1
Problem: Input pair: a , b . Output: entry with lower pIC50. # answer = label of selected item
Result: a
(a: 5.38, b: 7.02)
